Every entry's value here was drawn from paper PMC6433916.

Entries and their measured Ki follow.
Target: GST-C/EBPβ-bZIP (rat)
Sequence: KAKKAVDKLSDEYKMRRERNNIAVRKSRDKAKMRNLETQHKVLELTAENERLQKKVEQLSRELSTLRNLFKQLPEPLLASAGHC
Experiment: fluorescence anisotropy competition
Details: 25 mM Tris-HCl pH 7.6, 75 mM NaCl, 150 mM KCl, 5 mM MgCl2, 0.1 mM DTT, 0.01% NP-40, room temperature, 20 min
Just the number please, in µM, no unit attached.

Example cases with answers are listed next.
Could you please provide reported Ki for CCCTGCTTACACAATAGGCTC (double strand) [BS1 competitor] ? Thanks!
0.083

Could you please provide reported Ki for CCCTGCTTGCATAACAGGCTC (double strand) [HPV18 BS2L competitor] ? Thanks!
0.154

# next sequence below
Could you please provide reported Ki for CCCTGATTGCAAAATAGGCTC (double strand) [BS2 competitor] ? Thanks!
0.066

###

Molecular target: GST-C/EBPβ-bZIP (rat)
Sequence: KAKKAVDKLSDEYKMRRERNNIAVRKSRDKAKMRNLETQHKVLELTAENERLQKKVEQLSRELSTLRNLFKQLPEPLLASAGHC
Assay: fluorescence anisotropy
Conditions: 25 mM Tris-HCl pH 7.6, 75 mM NaCl, 150 mM KCl, 5 mM MgCl2, 0.1 mM DTT, 0.01% NP-40, room temperature, 20 min
recorded-metric: pKd
pKd here: minus log base 10 of the concentration, concentration in moles per litre.

Could you please provide reported pKd for TTTGGCTTACACAATTGCTTT (double strand) [BS1 probe] ? Thanks!
7.21

###

Target: GST-C/EBPβ-bZIP (rat) (UniProt P21272)
Sequence: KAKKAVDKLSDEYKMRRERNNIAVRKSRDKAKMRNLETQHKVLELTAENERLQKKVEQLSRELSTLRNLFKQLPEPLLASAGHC
Assay: fluorescence anisotropy competition
Details: vs 15 nM BS1 probe, 125 nM protein; 25 mM Tris-HCl pH 7.6, 75 mM NaCl, 150 mM KCl, 5 mM MgCl2, 0.1 mM DTT, 0.01% NP-40, room temperature, 20 min
recorded-metric: Ki (nM)
Just the number please, in nM, no unit attached.

Give Ki; test system GST-C/EBPβ-bZIP (rat) (UniProt P21272); sequence CCCTGATTGCGCAATAGGCTC (double strand) [Consensus C/EBPβ competitor]
27
